These measurements were taken from patent US20070213359A1.

- Experimental system: Ghrelin receptor (Homo sapiens, UniProt Q92847)
- Sequence (Q92847 whole entry): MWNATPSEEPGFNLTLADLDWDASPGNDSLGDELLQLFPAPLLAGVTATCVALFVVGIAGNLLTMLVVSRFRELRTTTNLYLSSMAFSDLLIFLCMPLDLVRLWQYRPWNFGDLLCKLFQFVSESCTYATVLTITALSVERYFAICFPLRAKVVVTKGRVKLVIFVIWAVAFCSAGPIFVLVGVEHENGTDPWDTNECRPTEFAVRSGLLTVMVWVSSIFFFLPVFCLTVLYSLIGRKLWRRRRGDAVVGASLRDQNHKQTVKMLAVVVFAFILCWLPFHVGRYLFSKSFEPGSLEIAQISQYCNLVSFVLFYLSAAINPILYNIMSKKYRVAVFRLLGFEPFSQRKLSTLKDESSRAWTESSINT
- Experimental protocol: Receptor Selection and Amplification Technology (R-SAT) assay
- Format: cell-based
- Design: expressed in transfected cells; host or cells: NIH3T3
- Cond: read-out: RSAT Eff(%)
Recorded Emax values for a group of compounds are listed next.
State the answer as a number, implicitly in %.

The following compounds have reported results that may help.
Compound	Unit name	Emax
COc1cccc2c(C(=O)NCc3cccc(C)c3)cn(CCCN3CCC(c4nc(-c5cccnc5)no4)CC3)c12	%	97
CCCCC1CCN(CCCn2cc(C(=O)C3CC3)c3cccc(OC)c32)CC1	%	95
COc1cccc2c(C(=O)NCC(C)C)cn(CCCN3C4CCC3CC(CCc3ccc(Cl)cc3)C4)c12 (stereo not shown)	%	85
COc1cccc2c(C(=O)c3ccccc3)cn(CCCN3CCN(Oc4cccc(Cl)c4)CC3)c12	%	79

Reading of Emax for `COc1cccc2c(C(=O)c3ccccc3)cn(CCCN3CCC(c4nc(-c5ccncc5)no4)CC3)c12` with Ghrelin receptor (Homo sapiens, UniProt Q92847): 98

Form: item `COc1cccc2c(C(=O)c3ccccc3)cn(CCCN3CCN(CCOc4ccc(Cl)cc4)CC3)c12` ; test system Ghrelin receptor (Homo sapiens, UniProt Q92847); Emax: 66

# lookup: `CC(=O)c1c(C)n(CCCNCCOc2ccccc2)c2c(Br)cccc12` on Ghrelin receptor (Homo sapiens, UniProt Q92847), Emax = 5

# Emax measured on Ghrelin receptor (Homo sapiens, UniProt Q92847) for item `CCOC(=O)C1CCN(CCn2cc(C(C)=O)c3ccccc32)CC1` = 72

Ghrelin receptor (Homo sapiens, UniProt Q92847) assay, compound CC(=O)c1cn(CCCN2CCCC(Cc3ccccc3Cl)C2)c2c(C)cccc12 (stereo not shown) , recorded Emax = 38

Field Emax (Ghrelin receptor (Homo sapiens, UniProt Q92847)), entry `CCc1cccc2c(C(C)=O)cn(CCCN3CCN(CCOc4ccc(Cl)c5ccccc45)CC3)c12` : 29

Record for COc1cccc2c(C(=O)Cc3ccccc3)cn(CCCN3C4CCC3CC(Oc3ccccc3Cl)C4)c12 (stereo not shown) under target or system Ghrelin receptor (Homo sapiens, UniProt Q92847): Emax reported as 129

Simply: `CC(=O)c1c(C)n(CCCN2CCC(c3nc(-c4ccncc4)no3)CC2)c2c(Br)cccc12` , Ghrelin receptor (Homo sapiens, UniProt Q92847), Emax = 25

====

- Experimental system: Ghrelin receptor (Homo sapiens, UniProt Q92847)
- Experimental protocol: Receptor Selection and Amplification Technology (R-SAT) assay
- Assay type: cell-based
- Parameters: expressed in transfected cells; host or cells: NIH3T3
- Cond: negative logarithm of ligand concentration causing 50% inhibition of constitutive receptor response; transfected NIH3T3 cells; '—' not defined (nd used separately); read-out: RSAT pIC50 (converted)
Recorded endpoint: log10 IC50 (log10 of the value in nM)
Lab note - IC50 converted to log10 from values in nM.

Compound	Quantitative readout
COc1ccccc1C1CCN(CCCn2cc(CCC(C)=O)c3ccccc32)CC1	3.70

Form field log10 IC50, entry `COc1cccc2c(C#N)cn(CCCN3CCCN(Cc4ccc(F)cc4)CC3)c12` : 1.20

====

Listed compounds paired with reported log10(IC50)
- Experimental system: UniProt:Q92847
- Experimental protocol: Receptor Selection and Amplification Technology (R-SAT) assay
- Format: cell-based
- Set-up: expressed in transfected cells; host or cells: NIH3T3
- Cond: […]; '—' not defined (nd used separately); read-out: RSAT pIC50 (converted)
Values are log10 of IC50 in nM.

Solved entries:
Compound	Experimental system	log10(IC50)
COc1cccc2c(C(=O)c3ccccc3)cn(CCCN3CCCN(Cc4ccc(F)cc4)CC3)c12	UniProt:Q92847	0.60
COc1cccc2c(C(=O)c3ccccc3)cn(CCCN3CCCN(CCc4ccccc4)CC3)c12	UniProt:Q92847	1.20
CCCCC1CCN(CCCCn2cc(C(C)=O)c3ccccc32)CC1	UniProt:Q92847	2.90
COc1cccc2c(C(=O)NCc3cccc(Cl)c3)cn(CCCN3CCN(CCOc4ccc(Cl)cc4)CC3)c12	UniProt:Q92847	2.40

log10(IC50) recorded for this compound, `COc1ccccc1C1CCN(CCCn2cc(C(=O)c3ccccc3)c3cccc(OC)c32)CC1` , is 1.10

Recorded log10(IC50) (compound `COc1ccc2[nH]c3c(c2c1)CCN(CCCn1cc(C(C)=O)c2ccc(OC)cc21)C3` ): 2.90

// log10(IC50) lookup, compound = `COc1cccc2c(C(=O)C3CC3)cn(CCCN3CCN(CCOc4ccccc4)CC3)c12` , result: 0.90

Input `COc1cccc2c(C(=O)C3CC3)cn(CCCN3CCC(Oc4ccc(Cl)cc4)CC3)c12` . Output log10(IC50): 2.70

log10(IC50) reading for `CC(=O)c1cn(CCCN2CCCN(Cc3ccc(F)cc3)CC2)c2c(C)cccc12` : 0.40

====

Below: a set of entries, each annotated with reported log10 of IC50.
- Experimental system: Ghrelin receptor (Homo sapiens, UniProt Q92847)
- Experimental protocol: Receptor Selection and Amplification Technology (R-SAT) assay
- Format: cell-based
- Design: expressed in transfected cells; host or cells: NIH3T3
- Cond: […]; '—' not defined (nd used separately); read-out: RSAT pIC50 (converted)
Would you kindly interpret these values as log10 of IC50 expressed in nM?

Molecule	Recorded endpoint	Quantitative readout
COc1cccc2c(C(=O)NCc3cccc(C)c3)cn(CCCN3CCN(Cc4ccc(Cl)cc4Cl)CC3)c12	log10 of IC50	1.40
COc1cccc2c(C(=O)C3CC3)cn(CCCN3C4CCC3CC(CC(=O)c3ccc(Cl)cc3)C4)c12 (centres unmarked)	log10 of IC50	0.90
COc1cccc2c(C(=O)NCc3cccc(C)c3)cn(CCCN3CCC4(CC3)CC(=O)c3ccccc3O4)c12	log10 of IC50	2.20
COc1cccc2c(C(=O)NCc3cccc(C)c3)cn(CCCN3CCC(c4nc5ccccc5s4)CC3)c12	log10 of IC50	0.40
COc1cccc2c(C(=O)c3ccccc3)cn(CCCN3CCC(c4nc5ccccc5s4)CC3)c12	log10 of IC50	-0.70

Record summary for COc1cccc2c(C(=O)NCc3cccc(Cl)c3)cn(CCCN3C4CCC3CC(Oc3ccc(F)cc3)C4)c12 (centres unmarked) : reported log10 of IC50 = 1.60

Note to self: log10 of IC50 recorded for `COc1cccc2c(C(=O)C3CC3)cn(CCCN3CCC(Oc4ccc(F)cc4)CC3)c12` was -0.40

Value of measured log10 of IC50 for the entry `CC(=O)c1cn(CCCN2CCC(C(=O)c3ccccc3)CC2)c2cc(Br)ccc12` : 3.40

====

# log10(Ki) per record follows
- Experimental system: GHSR1a receptor (Homo sapiens, UniProt Q92847)
- Construct: expressed in transfected cells; host or cells: HEK293 (membranes)
- Sequence (Q92847 whole entry): as above
- Experimental protocol: 125I-Ghrelin binding assay
- Cond: Binding pKi, displacement of 125I-ghrelin (0.053 nM), membranes of HEK293 cells transfected with GHSR1a; Cheng-Prussoff; '—' not defined
The base-10 logarithm of Ki, taken with Ki in µM, is what appears here.

Compound	Experimental system	Recorded endpoint	Quantitative readout
CC(=O)c1cn(CCCN2[C@@H]3CC[C@H]2C[C@@H](Oc2ccc(Cl)cc2)C3)c2ccccc12	GHSR1a receptor (Homo sapiens, UniProt Q92847)	log10(Ki)	0.90
CCCCC[C@H]1C[C@H]2CC[C@@H](C1)N2CCCn1cc(C(=O)NCc2cccc(C)c2)c2cccc(OC)c21	GHSR1a receptor (Homo sapiens, UniProt Q92847)	log10(Ki)	-1.30
COc1cccc2c(C(=O)C3CC3)cn(CCCN3C4CCC3CC(CCc3ccc(Cl)cc3)C4)c12 (stereo not drawn)	GHSR1a receptor (Homo sapiens, UniProt Q92847)	log10(Ki)	-1.70
CCCCC1CCN(CCCn2cc(C(C)=O)c3ccccc32)CC1 [drawing 584]	GHSR1a receptor (Homo sapiens, UniProt Q92847)	log10(Ki)	0.60

In plain terms, `COc1cccc2c(C(=O)C3CC3)cn(CCCN3CCN(CCOc4ccc(Cl)cc4)CC3)c12` has a documented log10(Ki) of -0.90

The recorded log10(Ki) for `COc1cccc2c(C(=O)NCc3cccc(Cl)c3)cn(CCCNCCOc3ccccc3)c12` is -1.40

Recorded result, `COc1cccc2c(C(=O)NCc3cccc(C)c3)cn(CCCNCCOc3ccccc3)c12` , log10(Ki): -1.00

The recorded log10(Ki) for COc1cccc2c(C(=O)NCC(C)C)cn(CCCN3CCC(c4nc5ccccc5s4)CC3)c12 [drawing 234] is 0.00

So, `CCCCC1CCN(CCCn2cc(C(=O)C3CC3)c3cccc(OC)c32)CC1` ? Its log10(Ki) was -0.40

get_value(item= `COc1cccc2c(C(=O)NCc3cccc(C)c3)cn(CCCN3CCC(Oc4ccc(F)cc4)CC3)c12` , readout=log10(Ki)) returns -1.00

Record summary for `COc1cccc2c(C(=O)NCc3cccc(C)c3)cn(CCCN3CCN(Cc4ccc(Cl)cc4Cl)CC3)c12` : reported log10(Ki) = 0.00

# log10(Ki) of `CCCCC[C@H]1C[C@H]2CC[C@@H](C1)N2CCCn1cc(C(=O)NCc2cccc(Cl)c2)c2cccc(OC)c21` = -0.70
